B1: TRIM63 (parent)
chain: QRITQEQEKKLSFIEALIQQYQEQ

variants of: B1; test: protein stability index of a GFP-peptide fusion (GPS, HEK-293T) (PSI 1-6); higher = more stable; conditions: c terminus: a fixed tail appended;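 further: lentivirally expressed fusions sorted by FACS into six bins by GFP to DsRed ratio, PSI derived from sequencing read proportions per bin multiplied by bin number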
Class class 1: protein stability index at least 2. Class class 0: protein stability index below 2.

Consider the worked cases shown below.
# querySequence, className
rows = [
    ("QRITQEQQKKLSFIEALIQQYQEQ [E8Q]", "class 1"),
    ("QRITQEQEKKLSFIEALIQQYLEQ [Q22L]", "class 1"),
    ("QPITQEQEKKLSFIEALIQQYQEQ [R2P]", "class 1"),
]

Qu. Assess whether reported protein stability index for QRITQEQEKKLSFIEALDQQYQEQ [I18D] sits at 2 or higher.
Ans. class 1

Qu. Assess whether reported protein stability index for QRITQEQEKKLSFIEAPIQQYQEQ [L17P] sits at 2 or higher.
Ans. class 1

Qu. Assess whether reported protein stability index for QRITQEQEGKLSFIEALIQQYQEQ [K9G] sits at 2 or higher.
Ans. class 1

Qu. Assess whether reported protein stability index for QRITQEQEKKLSFIEYLIQQYQEQ [A16Y] sits at 2 or higher.
Ans. class 1

Qu. Assess whether reported protein stability index for QRITQEQEKKLSFIEVLIQQYQEQ [A16V] sits at 2 or higher.
Ans. class 0

Qu. Assess whether reported protein stability index for QRITQEQEKKLSRIEALIQQYQEQ [F13R] sits at 2 or higher.
Ans. class 1

Qu. Assess whether reported protein stability index for QRITQEQEKKLSDIEALIQQYQEQ [F13D] sits at 2 or higher.
Ans. class 1

Qu. Assess whether reported protein stability index for QRITQEQEKKLSFIEALIQVYQEQ [Q20V] sits at 2 or higher.
Ans. class 0

Qu. Assess whether reported protein stability index for QRITQEQEKKLSFIEHLIQQYQEQ [A16H] sits at 2 or higher.
Ans. class 1

Qu. Assess whether reported protein stability index for QRITQEQEKKLSFITALIQQYQEQ [E15T] sits at 2 or higher.
Ans. class 1

Qu. Assess whether reported protein stability index for QRITQEQEAKLSFIEALIQQYQEQ [K9A] sits at 2 or higher.
Ans. class 1

Qu. Assess whether reported protein stability index for QRITQELEKKLSFIEALIQQYQEQ [Q7L] sits at 2 or higher.
Ans. class 1

Qu. Assess whether reported protein stability index for QRITQEQEKKLSFIEALIKQYQEQ [Q19K] sits at 2 or higher.
Ans. class 1

Qu. Assess whether reported protein stability index for QRITQEQEKKLSFIEALIQQYSEQ [Q22S] sits at 2 or higher.
Ans. class 1

Qu. Assess whether reported protein stability index for QRITQEQEKKLSFIEAYIQQYQEQ [L17Y] sits at 2 or higher.
Ans. class 0

Qu. Assess whether reported protein stability index for QRIYQEQEKKLSFIEALIQQYQEQ [T4Y] sits at 2 or higher.
Ans. class 0

Qu. Assess whether reported protein stability index for QRITQEQEKKLSFIWALIQQYQEQ [E15W] sits at 2 or higher.
Ans. class 1
